Quick reference: Percent Effect of the listed items.
# TESTED TARGET: Proteasome subunit beta (Trypanosoma cruzi)
# PROCEDURE TEXT: Trypanosoma cruzi proteasome chymotrypsin-like activity (TcProtChymo) assay.
# Type: functional
# Parameters: scale not given: in the data most compounds retested in dose-response had high values
# CONDITION DESCRIPTION: 9.37 µM

{"COMPOUND": "COc1ccnc(N2CCN(C(=O)c3cnn(C)c3C3CC3)CC2)n1", "Percent Effect (%)": 6.61}
{"COMPOUND": "CCCc1cc(C(=O)N(C)Cc2cnc3ccccc3n2)n(C)n1", "Percent Effect (%)": 8.82}
{"COMPOUND": "CC(C)NC(=O)N1CCN(S(=O)(=O)C2CC2)CC2(CC(=O)N(C)C2)C1 (configuration not stated)", "Percent Effect (%)": -2.79}
{"COMPOUND": "CN(Cc1nnc(-c2ccco2)o1)CC1CCCN1c1cccnn1 (configuration not stated)", "Percent Effect (%)": 21.9}
{"COMPOUND": "CCCn1c(C)c(CC(=O)NC)c2c1CC(C)(C)CC2=O", "Percent Effect (%)": 2.66}
{"COMPOUND": "Cc1noc(Cl)c1CCC(=O)N1CCCCC1Cn1cccn1 (configuration not stated)", "Percent Effect (%)": 9.3}
{"COMPOUND": "Cc1ccc(C(=O)N2CCN(CCCSCC#N)CC2)o1", "Percent Effect (%)": 6.42}
{"COMPOUND": "CC(C)c1nnc2n1CCN(CC(=O)Nc1nncs1)C2", "Percent Effect (%)": 8}
{"COMPOUND": "CCc1ccc(C2CCCCCN2Cc2nc(CCOC)no2)o1 (configuration not stated)", "Percent Effect (%)": 16.5}
{"COMPOUND": "CCN1CCN(C(=O)c2nc(C)n(-c3ccccc3Cl)n2)CC1", "Percent Effect (%)": 3.81}
{"COMPOUND": "Cc1ccc(C2CSCCN2C(=O)C2=CCCC2)o1 (configuration not stated)", "Percent Effect (%)": 2.83}
{"COMPOUND": "CC(C)c1nn(C)c(N(C)C)c1CNCC(O)c1ccccc1F (configuration not stated)", "Percent Effect (%)": 4.39}
{"COMPOUND": "Cc1nnc2n1CCN(Cc1ncc(-c3ccc(Cl)cc3)o1)C2", "Percent Effect (%)": -0.167}
{"COMPOUND": "CC(C)c1ncc2c(n1)CN(Cc1nc(Cc3ccccc3)no1)CC2", "Percent Effect (%)": -5.92}
{"COMPOUND": "Cc1nc(Nc2nccs2)cc(C2CCCN2C2CCOCC2)n1 (configuration not stated)", "Percent Effect (%)": 8.89}
{"COMPOUND": "Cc1cc(C)n(CC2CCCN2C(=O)c2ccc3c(c2)nnn3C)n1 (configuration not stated)", "Percent Effect (%)": 14.9}
{"COMPOUND": "N#Cc1cn(CC(=O)NC2CC2)c2ccc(Br)cc2c1=O", "Percent Effect (%)": 14.7}
{"COMPOUND": "O=C(NCc1ccccn1)c1nnn(-c2ccc(Br)cc2)n1", "Percent Effect (%)": 13.2}
{"COMPOUND": "Cc1c(C)n(Cc2ccccn2)c2nc3c(c(N)c12)CCCC3", "Percent Effect (%)": 12.8}
{"COMPOUND": "COC(=O)c1ccc(C2CC(=O)Oc3cc(C)[nH]c(=O)c32)cc1 (configuration not stated)", "Percent Effect (%)": 7.58}
{"COMPOUND": "CCN(Cc1cccc(Cl)c1)Cc1nc2c(cnn2C)c(=O)[nH]1", "Percent Effect (%)": 15.4}
{"COMPOUND": "O=C(c1cnccn1)N1CCN(Cc2ccncc2)c2ncccc2C1", "Percent Effect (%)": 2.73}
{"COMPOUND": "CC(C)c1nn(C)c(N(C)C)c1CNCc1ccccc1CN(C)C", "Percent Effect (%)": 7.85}
{"COMPOUND": "O=C(NC1=NCCCN1c1ccc(Cl)cc1)c1cccc(Cl)c1", "Percent Effect (%)": 15.1}
{"COMPOUND": "CN(C)CCNC(=O)c1cnc2c(c1)nc(-c1ccccc1Cl)n2C", "Percent Effect (%)": 9.36}
{"COMPOUND": "O=S(=O)(C1CC1)N1CC[C@]2(C[C@@H](Oc3ccccn3)CO2)C1", "Percent Effect (%)": 7.66}
{"COMPOUND": "Cc1cc(C)nc(NC(=O)C(C)Oc2ccc3c(c2)OCO3)n1 (configuration not stated)", "Percent Effect (%)": 19.6}
{"COMPOUND": "COc1cc(C)nc(N2CCN(C(=O)CCn3cc(C)cn3)CC2)n1", "Percent Effect (%)": -6.47}
{"COMPOUND": "Cn1cc(CN2CCc3nc(-c4ccccn4)nc(O)c3C2)cn1", "Percent Effect (%)": -0.617}
{"COMPOUND": "Cc1ccc(CC(=O)N2CC[C@@H]3CN(CCN(C)C)CCO[C@@H]3C2)cc1", "Percent Effect (%)": 19.7}
{"COMPOUND": "CSc1cc2c(cc1NC(=O)NCC(C)(C)C(N)=O)OCCO2", "Percent Effect (%)": 12.8}
{"COMPOUND": "COc1ccccc1OCC(=O)Nc1ncccc1OC(F)F", "Percent Effect (%)": 13.2}
{"COMPOUND": "Cc1ccc(F)c(OC2(C(=O)O)CCN(C(=O)N3CCCC3)CC2)c1", "Percent Effect (%)": 2.81}
{"COMPOUND": "CN(C)C(=O)Cc1nc(CN2CCOC(Cn3cccn3)C2)cs1 (configuration not stated)", "Percent Effect (%)": 10.6}
{"COMPOUND": "O=C(CN1CCCC(O)C1)NC(=O)NCc1cccs1 (configuration not stated)", "Percent Effect (%)": 11.8}
{"COMPOUND": "COCCC(=O)N1CCN(CCN(C)C)c2ncccc2C1", "Percent Effect (%)": 9.48}
{"COMPOUND": "Cc1cc(N2CCC(N(C)C(=O)Nc3ccccc3)CC2)nc(C)n1", "Percent Effect (%)": 12.8}
{"COMPOUND": "CCN(Cc1nc2c(cnn2C)c(=O)[nH]1)c1cccc(Cl)c1", "Percent Effect (%)": 14.3}
{"COMPOUND": "COc1ccc(-c2noc(C(=O)NCCN3CCCCC3)n2)cc1OC", "Percent Effect (%)": 1.85}
{"COMPOUND": "O=C(COc1cccc2c1CCC2=O)NCCSc1ccccc1", "Percent Effect (%)": 8.92}
{"COMPOUND": "Cc1cc2cc(C(=O)N[C@@H]3CC[C@@H](N4CCOCC4)[C@@H]3O)ccc2o1", "Percent Effect (%)": 13.4}
{"COMPOUND": "Cc1nc2c(c(N3CC=CC3)n1)CCN(Cc1ccoc1)CC2", "Percent Effect (%)": 9.65}
{"COMPOUND": "CCOc1cc(C)ccc1NC(=O)N(C)Cc1cnn(C)c1", "Percent Effect (%)": -2.52}
{"COMPOUND": "O=C(Nc1ccccc1OC(F)F)C1=NN(c2ccccc2)C(=O)CN1", "Percent Effect (%)": 8.11}
{"COMPOUND": "CCOc1nnc(CN2CCOC(CNc3cccnn3)C2)s1 (configuration not stated)", "Percent Effect (%)": 11.8}
{"COMPOUND": "Cn1cc(C(=O)N[C@@H]2CN(Cc3cccs3)[C@@H]3CCCO[C@@H]32)cn1", "Percent Effect (%)": 9.74}
{"COMPOUND": "Cc1ccc(C2CCCCCN2Cc2cn(C)nc2C)cc1 (configuration not stated)", "Percent Effect (%)": 5.92}

Just for reference, ChEMBL document CHEMBL3988442 is where these values come from.
